- assay notes: In vitro cytotoxic activity against of human colon tumor-8r cells in culture and LD50 was reported at the end of incubation period of 72 hours.
- Assay type: cell-based
- measurement conditions: read-out: LD50

{"columns": ["compound", "CC50 at 72 h"],
 "data": [
  ["CCC(=O)Oc1cccc2c1CC(C[Se]c1ccccc1)C(=O)O2 (configuration not stated)", "210 µM"],
  ["CCCCCCCC(=O)Oc1cccc2c1CC(C[Se]c1ccccc1)C(=O)O2 (configuration not stated)", "180 µM"]
]}

====

- assay notes: In vitro cytotoxic activity against human colon tumor-8r cells in culture and LD50 was reported at the end of incubation period of 48 hours.
- Format: cell-based
- measurement conditions: read-out: LD50
Rule: CC50 at 48 h below 300 µM gives label 1. Equal to or above 300 µM gives label 0.

{"columns": ["molecule", "category label"],
 "data": [
  ["CC(=O)Oc1cccc2c1CC(C[Se]c1ccccc1)C(=O)O2 (stereo unspecified)", "label 1"],
  ["Sc1ncnc2nc[nH]c12 [MERCAPTOPURINE ANHYDROUS]", "label 0"],
  ["CCCC(=O)Oc1cccc2c1CC(C[Se]c1ccccc1)C(=O)O2 (stereo unspecified)", "label 1"],
  ["CCCCCCCCCC(=O)Oc1cccc2c1CC(C[Se]c1ccccc1)C(=O)O2 (stereo unspecified)", "label 1"],
  ["O=C1Oc2cccc(OC3CCCCO3)c2CC1C[Se]c1ccccc1 (stereo unspecified)", "label 1"],
  ["O=C1Oc2cccc(O)c2CC1C[Se]c1ccccc1 (stereo unspecified)", "label 1"]
]}

====

- assay notes: In vitro cytotoxic activity against human colon tumor-8r cells in culture and LD50 was reported at the end of incubation period of 24 hours.
- Assay type: cell-based
- measurement conditions: read-out: LD50
Here the recorded CC50 at 24 h is given for each entry.
metric name: CC50 at 24 h (µM)

{"columns": ["molecule", "assay value"],
 "data": [
  ["Sc1ncnc2nc[nH]c12 [MERCAPTOPURINE ANHYDROUS]", 760],
  ["CCCC(=O)Oc1cccc2c1CC(C[Se]c1ccccc1)C(=O)O2 (stereo unspecified)", 370],
  ["CCC(=O)Oc1cccc2c1CC(C[Se]c1ccccc1)C(=O)O2 (stereo unspecified)", 310],
  ["O=C1Oc2cccc(OC3CCCCO3)c2CC1C[Se]c1ccccc1 (stereo unspecified)", 260],
  ["CCCCCCCCCC(=O)Oc1cccc2c1CC(C[Se]c1ccccc1)C(=O)O2 (stereo unspecified)", 230],
  ["O=C1Oc2cccc(O)c2CC1C[Se]c1ccccc1 (stereo unspecified)", 330]
]}

====

Reported values of CC50 at 72 h for individual entries
- assay notes: In vitro cytotoxic activity against human colon tumor-8r cells in culture and LD50 was reported at the end of incubation period of 72 hours.
- Type: cell-based
- measurement conditions: read-out: LD50
metric name: CC50 at 72 h (µM)

{"columns": ["molecule", "metric name", "assay value"],
 "data": [
  ["CCCCCCCCCC(=O)Oc1cccc2c1CC(C[Se]c1ccccc1)C(=O)O2 (stereo unspecified)", "CC50 at 72 h", 140],
  ["CC(=O)Oc1cccc2c1CC(C[Se]c1ccccc1)C(=O)O2 (stereo unspecified)", "CC50 at 72 h", 180],
  ["O=C1Oc2cccc(OC3CCCCO3)c2CC1C[Se]c1ccccc1 (stereo unspecified)", "CC50 at 72 h", 150],
  ["CCCC(=O)Oc1cccc2c1CC(C[Se]c1ccccc1)C(=O)O2 (stereo unspecified)", "CC50 at 72 h", 320],
  ["Sc1ncnc2nc[nH]c12 [MERCAPTOPURINE ANHYDROUS]", "CC50 at 72 h", 280],
  ["O=C1Oc2cccc(O)c2CC1C[Se]c1ccccc1 (stereo unspecified)", "CC50 at 72 h", 230]
]}

The measurements presented in this section are drawn from ChEMBL document CHEMBL1122776.
